Recorded values, source patent US6818631B1.

LINE NOTATION | melting point
C#CCOc1nc(-n2ccnc2)c(I)c(C(F)(F)F)n1 | 128 to 129 °C
O=C1CCCN1c1nc(-n2ccnc2)c(I)c(C(F)(F)F)n1 | 195 to 197 °C
C#Cc1c(-n2ccnc2)nc(C)nc1C(F)(F)F | 121 to 122 °C
CSc1nc(-c2nn[nH]n2)c(I)c(C(F)(F)F)n1 | 196 to 200 °C
Fc1c(-n2ccnc2)nc(-n2ccnc2)nc1C(F)(F)F | 142 to 150 °C (dec.)
